From: patent US9757375B2

- target_entity: T4 DNA ligase (Enterobacteria phage T4, UniProt P00970)
- Construct: purchased NEB
- Sequence (P00970 1-487): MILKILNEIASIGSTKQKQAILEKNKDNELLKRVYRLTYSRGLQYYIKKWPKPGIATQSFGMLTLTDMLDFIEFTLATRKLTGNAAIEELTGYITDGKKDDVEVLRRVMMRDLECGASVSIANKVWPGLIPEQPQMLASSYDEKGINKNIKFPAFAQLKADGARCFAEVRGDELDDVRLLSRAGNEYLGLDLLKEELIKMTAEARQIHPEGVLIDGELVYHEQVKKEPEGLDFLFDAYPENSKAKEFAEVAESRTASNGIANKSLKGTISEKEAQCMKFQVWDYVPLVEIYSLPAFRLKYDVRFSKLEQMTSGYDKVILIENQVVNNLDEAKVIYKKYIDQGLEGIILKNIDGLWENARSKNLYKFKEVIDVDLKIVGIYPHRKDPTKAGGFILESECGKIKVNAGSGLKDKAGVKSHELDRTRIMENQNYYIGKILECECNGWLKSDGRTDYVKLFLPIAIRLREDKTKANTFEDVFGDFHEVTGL
- experiment: High-throughput fluorescence-based DNA joining assay, non-specific inhibitor control
- Format: biochemical, bacteriophage T4
- conditions_used: 100 uM
- Method: Candidate ligase inhibitors identified by CADD were assayed for their ability to inhibit hLigI and T4 DNA ligase using a high-throughput, fluorescence energy transfer-based DNA joining assay (22). […] DNA binding by the candidate DNA ligase inhibitors was measured by displacement of ethidium bromide from DNA as previously described (30). […]
readout_type: % activity Inhibition LigT4 100 uM

O=C(O)c1cnn2c(C(F)(F)F)cc(-c3ccco3)nc12 : Ø
O=C(O)Cc1cncc(Br)c1 : Ø
CCn1nc(N)c2c(O)nc(O)cc21 : Ø
